Target: SIK2 (Homo sapiens)
pIC50: −log10 of the molar value.
test.readout: pIC50

Known results for compounds:
Cc1ccc(Nc2ccc3c(c2)ncn3-c2ccc(C(C)O)c(-c3cn(CC4CC4)nc3C)n2)nn1 (stereo not shown): 9.00
Cc1cc(C#N)nn1-c1nc(-n2cnc3cc(Nc4cnn(C5COC5)c4)ccc32)ccc1C(C)O (stereo not shown): 8.85

a. Cc1cc(C#N)nn1-c1nc(-n2cnc3cc(Nc4nccnn4)ccc32)ccc1C(C)O (stereo not shown)
b. Cc1cc(C#N)nn1-c1nc(-n2cnc3cc(N[C@H]4CNC[C@H]4F)c(F)cc32)ccc1C(C)O (stereo partly shown)
Which record would sort first by descending pIC50, a or b ? State your choice using its label. a
(a: 8.74, b: 7.08)

###

Record type: IC50 measurement. Applies to: SIK2 (Homo sapiens)
test.readout: IC50 (nM)

1. Cc1ccc(Nc2cc3c(cc2F)ncn3-c2ccc(CO)c(-n3nc(C#N)cc3C)n2)nn1
2. Cc1cc(C#N)nn1-c1nc(-n2cnc3cc(N4CCN(C5COC5)CC4)ccc32)ccc1C(C)O (stereo not shown)
3. Cc1ccc(Nc2ccc3c(c2)ncn3-c2ccc(C(C)O)c(-n3nc(S(C)(=O)=O)cc3C)n2)nn1 (stereo not shown)
Put the items above in order of decreasing IC50. Note for the reader: the ranking is given by listing the labels in the order requested. 2, 1, 3
(2: 132 nM, 1: 52.4 nM, 3: 9 nM)

###

Target: SIK3 (Homo sapiens, UniProt Q9Y2K2)
Sequence (Q9Y2K2 whole entry): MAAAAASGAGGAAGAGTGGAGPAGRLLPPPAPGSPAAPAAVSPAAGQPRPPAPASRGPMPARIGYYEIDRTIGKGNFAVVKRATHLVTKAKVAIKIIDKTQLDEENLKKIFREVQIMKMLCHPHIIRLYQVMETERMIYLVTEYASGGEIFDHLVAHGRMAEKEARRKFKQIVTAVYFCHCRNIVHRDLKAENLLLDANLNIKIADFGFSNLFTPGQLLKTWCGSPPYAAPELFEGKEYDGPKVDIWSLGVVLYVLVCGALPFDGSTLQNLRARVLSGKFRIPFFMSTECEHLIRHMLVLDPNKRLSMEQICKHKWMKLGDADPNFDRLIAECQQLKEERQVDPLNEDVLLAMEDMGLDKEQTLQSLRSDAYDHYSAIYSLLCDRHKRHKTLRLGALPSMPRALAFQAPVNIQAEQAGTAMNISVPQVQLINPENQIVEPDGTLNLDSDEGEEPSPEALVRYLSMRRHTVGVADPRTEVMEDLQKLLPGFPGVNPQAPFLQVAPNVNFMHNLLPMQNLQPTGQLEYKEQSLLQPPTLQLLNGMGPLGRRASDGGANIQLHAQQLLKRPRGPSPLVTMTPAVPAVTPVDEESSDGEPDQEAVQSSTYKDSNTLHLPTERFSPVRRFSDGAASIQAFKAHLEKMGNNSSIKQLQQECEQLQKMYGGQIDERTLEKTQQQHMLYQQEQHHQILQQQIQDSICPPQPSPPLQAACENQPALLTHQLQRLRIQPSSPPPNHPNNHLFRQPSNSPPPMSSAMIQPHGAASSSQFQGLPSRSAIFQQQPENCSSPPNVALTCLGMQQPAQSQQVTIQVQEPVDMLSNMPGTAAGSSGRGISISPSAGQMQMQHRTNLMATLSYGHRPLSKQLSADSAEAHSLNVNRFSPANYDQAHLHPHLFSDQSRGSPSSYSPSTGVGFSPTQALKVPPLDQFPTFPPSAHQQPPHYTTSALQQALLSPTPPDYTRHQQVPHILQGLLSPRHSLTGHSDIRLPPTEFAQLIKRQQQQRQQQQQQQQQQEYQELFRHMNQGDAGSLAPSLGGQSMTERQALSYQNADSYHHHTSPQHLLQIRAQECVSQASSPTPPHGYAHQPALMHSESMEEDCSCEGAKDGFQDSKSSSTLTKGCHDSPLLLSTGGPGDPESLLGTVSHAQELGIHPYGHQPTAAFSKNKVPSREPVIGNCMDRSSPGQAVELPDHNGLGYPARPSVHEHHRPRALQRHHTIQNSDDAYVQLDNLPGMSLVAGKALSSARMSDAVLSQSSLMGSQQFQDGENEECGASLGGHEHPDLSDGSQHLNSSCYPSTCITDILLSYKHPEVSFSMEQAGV
pIC50: −log10 of the molar value.
test.readout: pIC50

Cc1ccc(Nc2ccc3c(c2)ncn3-c2ccc(C(O)C(F)F)c(-n3nc(C#N)cc3C)n2)nn1 (stereo not shown): 8.74

a. Cc1cc(C#N)nn1-c1nc(-n2cnc3cc(Nc4ccnnc4)ccc32)ccc1C(C)O (stereo not shown)
b. Cc1ccc(Nc2ccc3c(c2)ncn3-c2ccc(C(C)O)c(-c3ccoc3C#N)n2)nn1 (stereo not shown)
Which record would sort first by descending pIC50, a or b ? State your choice using its label. a

I. Cc1ccc(Nc2ccc3c(c2)ncn3-c2ccc(C(C)O)c(-n3nc(C#N)c4c3CCNC4)n2)nn1 (stereo not shown)
II. COc1cc2ncn(-c3ccc(CO)c(NCCCCO)n3)c2cc1OC
Which record would sort first by descending pIC50, I or II ? State your choice using its label. I
(I: 9.52, II: 5.77)

###

Molecular target: SIK2 (Homo sapiens, UniProt Q9H0K1)
Sequence (Q9H0K1 whole entry): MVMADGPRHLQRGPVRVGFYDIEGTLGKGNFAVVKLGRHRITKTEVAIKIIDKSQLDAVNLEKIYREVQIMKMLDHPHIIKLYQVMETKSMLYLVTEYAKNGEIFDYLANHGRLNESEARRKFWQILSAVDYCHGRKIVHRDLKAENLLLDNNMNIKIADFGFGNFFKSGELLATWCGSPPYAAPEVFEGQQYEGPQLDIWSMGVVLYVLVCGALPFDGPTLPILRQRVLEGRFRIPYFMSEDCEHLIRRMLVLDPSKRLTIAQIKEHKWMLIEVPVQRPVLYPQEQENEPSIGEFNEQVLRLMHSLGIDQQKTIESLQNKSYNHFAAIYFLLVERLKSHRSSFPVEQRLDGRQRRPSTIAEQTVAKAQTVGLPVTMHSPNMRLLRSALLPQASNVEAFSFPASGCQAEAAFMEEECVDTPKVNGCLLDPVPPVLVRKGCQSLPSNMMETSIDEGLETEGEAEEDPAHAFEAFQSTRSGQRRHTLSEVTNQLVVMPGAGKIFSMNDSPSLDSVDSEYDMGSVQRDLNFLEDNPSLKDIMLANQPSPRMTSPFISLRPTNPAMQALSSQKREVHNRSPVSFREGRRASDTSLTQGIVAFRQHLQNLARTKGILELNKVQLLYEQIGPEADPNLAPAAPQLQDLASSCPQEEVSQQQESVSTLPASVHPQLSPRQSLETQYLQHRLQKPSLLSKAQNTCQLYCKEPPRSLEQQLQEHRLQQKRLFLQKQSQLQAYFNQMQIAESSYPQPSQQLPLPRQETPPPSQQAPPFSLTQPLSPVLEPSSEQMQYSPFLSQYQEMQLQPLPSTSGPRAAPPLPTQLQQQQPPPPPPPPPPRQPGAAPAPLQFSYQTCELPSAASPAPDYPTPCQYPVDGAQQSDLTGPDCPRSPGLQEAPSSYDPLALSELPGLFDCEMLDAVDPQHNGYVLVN
test.readout: IC50 (nM)

Known results for compounds:
COc1cc2ncn(-c3ccc([C@H](C)O)c(-c4ccc(C#N)cc4)n3)c2cc1OC: 24.9
Cc1ccc(Nc2ccc3c(c2)ncn3-c2ccc([C@H](C)O)c(-c3cn(CC(F)(F)F)nc3C)n2)nn1: 46.8
Cc1ccc(Nc2ccc3c(c2)ncn3-c2ccc(C(C)O)c(-c3nn(CC(F)(F)F)cc3C)n2)nn1 (stereo not drawn): 5.3
Cc1ccc(Nc2ccc3c(c2)ncn3-c2ccc(C(C)O)c(-n3nc(C(F)(F)F)c4c3CCN(C)C4)n2)nn1 (stereo not drawn): 0.3
Cc1ccc(Nc2ccc3c(c2)ncn3-c2ccc(C(C)O)c(N3CCCS3(=O)=O)n2)nn1 (stereo not drawn): 818

A. Cc1cc(C(F)F)nn1-c1nc(-n2cnc3cc(N4C[C@H]5OCCN(C)[C@H]5C4)ccc32)ccc1CO
B. Cc1ccc(Nc2ccc3c(c2)ncn3-c2ccc(C(C)O)c(-c3cc(C(F)(F)F)n[nH]c3=O)n2)nn1 (stereo not drawn)
Which record shows the lower IC50: the first, A , or the second, B ? State your choice using its label. A
(A: 50.1 nM, B: 1570 nM)

a. Cc1ccc(Nc2ccc3c(c2)ncn3-c2ccc(C(C)O)c(-c3occc3C#N)n2)nn1 (stereo not drawn)
b. Cc1ccc(Nc2ccc3c(c2)ncn3-c2ccc(C(C)O)c(-n3cc(C#N)c(C)n3)n2)nn1 (stereo not drawn)
c. CCc1cc(-c2nc(-n3cnc4cc(Nc5ccc(C)nn5)ccc43)ccc2C(C)O)c(C)cn1 (stereo not drawn)
d. COc1cc2ncn(-c3ccc([C@H](C)O)c(-c4ccc(F)cc4OC)n3)c2cc1OC
Put the items in sequence by IC50, from largest down. Note for the reader: the ranking is given by listing the labels in the order requested. d, b, a, c

###

Record type: IC50 measurement. Applies to: SIK3 (Homo sapiens, UniProt Q9Y2K2)
test.readout: IC50 (nM)

a. Cc1ccc(Nc2ccc3c(c2)ncn3-c2ccc(C(C)O)c(-n3nc(C(F)F)cc3C)n2)nn1 (stereo not shown)
b. Cc1ccc(Nc2cc3ncn(-c4ccc(C(C)O)c(-n5nc(C#N)cc5C)n4)c3cc2OC2COC2)nn1 (stereo not shown)
c. Cc1ccc(Nc2ccc3c(c2)ncn3-c2ccc(C(C)O)c(N3C[C@H](C#N)C[C@@H]3C)n2)nn1 (stereo partly shown)
d. Cc1ccc(Nc2ccc3c(c2)ncn3-c2nc(-n3ccc(C#N)n3)c(C(C)O)cc2Cl)nn1 (stereo not shown)
Put the items above in order of decreasing IC50. Note for the reader: the ranking is given by listing the labels in the order requested. d, c, a, b
(d: 329 nM, c: 1.8 nM, a: 1.2 nM, b: 0.8 nM)

###

Record type: IC50 measurement. Applies to: SIK3 (Homo sapiens)
test.readout: IC50 (nM)

Known results for molecules:
Cc1ccc(Nc2ccc3c(c2)ncn3-c2ccc(C(C)O)c(-c3cnc(O)cc3C(F)(F)F)n2)nn1 (stereo not shown): 963
Cc1ccc(Nc2ccc3c(c2)ncn3-c2ccc(C(C)O)c(-c3cc(OC(F)F)ncc3C)n2)nn1 (stereo not shown): 1.2
Cc1cc(C#N)nn1-c1nc(-n2cnc3cc(Nc4ccc(C(F)F)nn4)ccc32)ccc1C(C)O (stereo not shown): 0.5
Cc1ccc(Oc2ccc3ncn(-c4ccc(C(C)O)c(-n5nc(C#N)cc5C)n4)c3c2)nn1 (stereo not shown): 190

a. Cc1cc(C#N)nn1-c1nc(-n2cnc3cc(Nc4nccnn4)ccc32)ccc1C(C)O (stereo not shown)
b. Cc1cc(OC(F)F)nn1-c1nc(-n2cnc3cc(Nc4ccc(C(F)F)nn4)ccc32)ccc1C(C)O (stereo not shown)
c. Cc1ccc(Nc2ccc3c(c2)ncn3-c2ccc(C(C)O)c(-c3ccc(O)cc3C#N)n2)nn1 (stereo not shown)
Put the items in sequence by IC50, from largest down. Note for the reader: the ranking is given by listing the labels in the order requested. c, a, b

###

Biological target: SIK3 (Homo sapiens, UniProt Q9Y2K2)
test.readout: IC50 (nM)

Cc1ccc(Nc2ccc3c(c2)ncn3-c2ccc(C(C)O)c(-n3nc(C)cc3C(F)F)n2)nn1 (stereo not drawn): 2
Cc1cc(C#N)nn1-c1nc(-n2cnc3cc(F)c(N[C@@H]4CNC[C@@H]4F)cc32)ccc1C(C)O (stereo in doubt): 213
Cc1ccc(Nc2ccc3c(c2)ncn3-c2ccc(C(C)O)c(N3CCC(C(F)F)C3)n2)nn1 (stereo not drawn): 3
Cc1cc(OC(F)F)nn1-c1nc(-n2cnc3cc(Nc4cccnn4)c(F)cc32)ccc1[C@H](C)O: 0.7
Cc1ccc(Nc2cc3ncn(-c4ccc(C(C)O)c(-n5nc(OC(F)F)cc5C)n4)c3cc2CC2COC2)nn1 (stereo not drawn): 22.9
Cc1ccc(Nc2cc3ncn(-c4ccc(C(C)O)c(-n5nc(C#N)cc5C)n4)c3cc2OC(F)F)nn1 (stereo not drawn): 0.7
Cc1ccc(Nc2ccc3c(c2)ncn3-c2ccc(C(C)O)c(-c3occc3C#N)n2)nn1 (stereo not drawn): 21.7
Cc1cc(C#N)nn1-c1nc(-n2cnc3cc(-c4ccn(C)c(=O)n4)ccc32)ccc1C(C)O (stereo not drawn): 27.6

I. Cc1cc(C#N)nn1-c1nc(-n2cnc3ccc(CN4CCCS4(=O)=O)cc32)ccc1C(C)O (stereo not drawn)
II. COc1cc2ncn(-c3ccc([C@H](C)O)c(-c4ccn(C)c(=O)c4)n3)c2cc1OC
Which record shows the lower IC50: the first, I , or the second, II ? State your choice using its label. I

A. COc1cc2ncn(-c3ccc([C@@H](C)O)c(-c4ccccc4C(N)=O)n3)c2cc1OC
B. COc1cc2ncn(-c3ccc(CO)c(N4CCOCC4)n3)c2cc1OC
C. Cc1cc(-c2nc(-n3cnc4cc(Nc5ccc(C)nn5)ccc43)ccc2C(C)O)cnn1 (stereo not drawn)
D. Cc1ccc(Nc2ccc3c(c2)ncn3-c2ccc(C(C)O)c(-n3nc(OC(F)F)cc3C)n2)nn1 (stereo not drawn)
E. Cc1ccc(Nc2ccc3ncn(-c4ccc(C(C)O)c(N5CCN(CC(F)(F)F)C(=O)C5)n4)c3c2)nn1 (stereo not drawn)
Put the items in sequence by IC50, from largest down. Note for the reader: the ranking is given by listing the labels in the order requested. A, B, E, C, D

I. Cc1cc(C(F)F)nn1-c1nc(-n2cnc3cc(F)c(Nc4ccc(F)c(F)c4F)cc32)ccc1C(C)O (stereo not drawn)
II. Cc1ccc(Nc2ccc3c(c2)ncn3-c2ccc(C(C)O)c(N3CC(C#N)C4(CCC4)C3)n2)nn1 (stereo not drawn)
III. Cc1ccc(Nc2ccc3c(c2)ncn3-c2ccc(C(C)O)c(-n3nc(C#N)cc3C)n2)cn1 (stereo not drawn)
IV. Cc1ccc(Nc2ccc3c(c2)ncn3-c2ccc(C(C)O)c(-c3cncc(C#N)c3)n2)nn1 (stereo not drawn)
V. Cc1ccc(Nc2ccc3c(c2)ncn3-c2ccc(C(C)O)c(-n3nc(C(F)(F)F)c4c3CCNC4)n2)nn1 (stereo not drawn)
Arrange these 5 molecules in increasing order of IC50. Note for the reader: the ranking is given by listing the labels in the order requested. V, III, II, IV, I
(V: 0.5 nM, III: 0.8 nM, II: 4.6 nM, IV: 7.1 nM, I: 11.7 nM)

I. Cc1ccc(Nc2ccc3c(c2)ncn3-c2ccc(C(C)O)c(-n3nc(C#N)cc3C)n2)nn1 (stereo not drawn)
II. COc1cc(C(F)F)nn1-c1nc(-n2cnc3ccc(Nc4ccc(C)nn4)cc32)ccc1C(C)O (stereo not drawn)
Which record shows the lower IC50: the first, I , or the second, II ? State your choice using its label. I

P. Cc1ccc(Nc2ccc3c(c2)ncn3-c2ccc(C(C)O)c(-n3ccc(C#N)n3)n2)nn1 (stereo not drawn)
Q. Cc1ccc(Nc2cc3ncn(-c4ccc(C(C)O)c(-c5cn(CC6CC6)nc5C)n4)c3cc2F)nn1 (stereo not drawn)
R. Cc1ccc(Nc2ccc3ncn(-c4ccc(C(C)O)c(N5CCC(C)(C#N)C5)n4)c3c2)nn1 (stereo not drawn)
S. Cc1cc(C(F)F)nn1-c1nc(-n2cnc3cc(Nc4ccc(C5(C)OCCO5)nn4)c(F)cc32)ccc1C(C)O (stereo not drawn)
Put the items in sequence by IC50, from largest down. Note for the reader: the ranking is given by listing the labels in the order requested. R, S, Q, P

a. Cc1ccc(Nc2cc3c(cc2OC2COC2)ncn3-c2ccc(C(C)O)c(-n3nc(OC(F)F)cc3C)n2)nn1 (stereo not drawn)
b. Cc1cc(C#N)nn1-c1nc(-n2cnc3cc(N4CCN(C)CC4)ccc32)ccc1C(C)O (stereo not drawn)
Which record shows the lower IC50: the first, a , or the second, b ? State your choice using its label. b

I. Cc1cc(C#N)nn1-c1nc(-n2cnc3cc(N4CC[C@H]5CNC(=O)[C@H]54)ccc32)ccc1C(C)O (stereo partly drawn)
II. Cc1nnc(Nc2ccc3c(c2)ncn3-c2ccc(C(C)O)c(-n3nc(C#N)cc3C)n2)o1 (stereo not drawn)
Which record would sort first by descending IC50, I or II ? State your choice using its label. I
(I: 51.3 nM, II: 17.5 nM)
